- Tested on: human NCX1 (Homo sapiens (Human), UniProt P32418)
- Sequence (P32418 whole entry, looked up): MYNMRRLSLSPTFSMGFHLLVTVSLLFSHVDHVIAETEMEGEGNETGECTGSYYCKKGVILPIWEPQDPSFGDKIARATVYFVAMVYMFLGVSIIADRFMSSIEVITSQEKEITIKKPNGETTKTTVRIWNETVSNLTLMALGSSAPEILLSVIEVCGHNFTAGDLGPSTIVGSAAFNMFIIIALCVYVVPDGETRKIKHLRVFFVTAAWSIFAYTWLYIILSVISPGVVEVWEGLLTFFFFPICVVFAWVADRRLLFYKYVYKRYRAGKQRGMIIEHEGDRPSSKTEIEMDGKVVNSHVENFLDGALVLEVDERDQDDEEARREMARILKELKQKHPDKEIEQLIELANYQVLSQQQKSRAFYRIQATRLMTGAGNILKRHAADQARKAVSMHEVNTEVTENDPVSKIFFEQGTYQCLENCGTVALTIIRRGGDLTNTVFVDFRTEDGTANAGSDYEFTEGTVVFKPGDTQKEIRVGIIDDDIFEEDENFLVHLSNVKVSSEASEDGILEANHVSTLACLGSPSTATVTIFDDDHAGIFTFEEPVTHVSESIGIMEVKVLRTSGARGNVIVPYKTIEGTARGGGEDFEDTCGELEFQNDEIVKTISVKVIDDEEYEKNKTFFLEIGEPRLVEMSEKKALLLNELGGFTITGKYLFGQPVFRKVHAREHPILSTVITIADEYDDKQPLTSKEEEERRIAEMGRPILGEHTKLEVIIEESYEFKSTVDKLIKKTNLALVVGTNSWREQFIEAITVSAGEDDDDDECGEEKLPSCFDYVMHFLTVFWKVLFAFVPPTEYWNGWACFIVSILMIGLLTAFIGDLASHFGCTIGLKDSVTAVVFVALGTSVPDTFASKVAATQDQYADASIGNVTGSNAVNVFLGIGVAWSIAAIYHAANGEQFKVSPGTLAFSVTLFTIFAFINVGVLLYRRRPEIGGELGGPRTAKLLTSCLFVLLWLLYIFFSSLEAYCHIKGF
- Method: Inhibition of Ca2+ influx into cells (NCX1 reverse mode), FLIPR Fluo-4 assay
- Format: cell-based
- Test conditions: inhibition of NCX1 in reverse mode (Ca2+ influx into cells); read-out: NCX1rv IC50
Metric name: pIC50
Keep in mind that pIC50 stands for -log10 of concentration in molar terms.

> print(dat)
                                   compound                                 tested.on  metric.name   val
1  Cc1csc(CCNCc2cnc(Oc3ccc4c(c3)CCC(c3ccccc3)O4)s2)n1 (centres unmarked)  human NCX1 (Homo sapiens (Human), UniProt P32418)        pIC50  6.40

Incoming: # input compound: Cc1ccccc1C1CCc2cc(Oc3ncc(CNC(=O)CN4CCCC4=O)s3)ccc2O1 (centres unmarked) ; wanted: its pIC50
Outgoing: 6.30

Incoming: Record request: pIC50 value, item CCCNC(=O)c1cnc(Oc2ccc3c(c2)CCC(c2cc(F)ccc2C)O3)s1 (centres unmarked)
Outgoing: 6.30

Incoming: So what does the record say about pIC50 for CCCNC(=O)c1cnc(Oc2ccc3c(c2)CCC(c2ccccc2C)O3)s1 (centres unmarked) ?
Outgoing: 6.52

Incoming: Find the recorded pIC50 belonging to Cc1ccccc1C1CCc2cc(Oc3nc(C)c(C(=O)NCc4ccno4)s3)ccc2O1 (centres unmarked) and report it.
Outgoing: 6.30

Incoming: I am curious: what pIC50 value has been reported for CC[C@H](C)[C@H](NC(=O)c1cnc(Oc2ccc3c(c2)CCC(c2cccnc2)O3)s1)C(=O)O (some centres unmarked) ?
Outgoing: 4.90

Incoming: Quick one: pIC50 of `Cc1ccccc1[C@@H]1CCc2cc(Oc3ncc(C(=O)NCCO)s3)ccc2O1` ?
Outgoing: 7.00

Incoming: // lookup pIC50 for Cc1ccc(F)cc1C1CCc2cc(Oc3ncc(C(=O)NCCO)s3)ccc2O1 (centres unmarked)
Outgoing: 6.40

====

- Tested on: human NCX1 (Homo sapiens (Human), UniProt P32418)
- Method: Inhibition of Ca2+ efflux out of cells (NCX1 forward mode), FLIPR assay
- Assay type: cell-based
- Test conditions: CHO cells stably expressing human NCX1, Ionomycin 2 μM, read-out: NCX1fw IC50
Metric name: log10(IC50) (log10 of the value in nM)
In our notation, the value equals log10 of IC50 in nM.

Incoming: Could you tell me which log10(IC50) is on file for Cc1ccccc1[C@@H]1CCc2cc(Oc3ncc(C(=O)NCCO)s3)ccc2O1 [Example 326] ?
Outgoing: 2.30

Incoming: Dear colleague, I am looking for the recorded log10(IC50) of the following molecule: CCCNC(=O)c1cnc(Oc2ccc3c(c2)CCC(c2ccccc2C)O3)s1 (stereo not shown) [Example 330]
Outgoing: 2.54

Incoming: Give the measured log10(IC50) of O=C(NC1CC1)c1cnc(Oc2ccc3c(c2)CCC(c2ccccc2)O3)s1 (stereo not shown) [Example 315] .
Outgoing: 3.52

Incoming: Tell me the measured log10(IC50) of Cc1ccccc1C1CCc2cc(Oc3nc(C)c(C(=O)NCc4ccno4)s3)ccc2O1 (stereo not shown) [Example 334] , please.
Outgoing: 3.32

Incoming: I am curious: what log10(IC50) value has been reported for Cc1ccc(F)cc1C1CCc2cc(Oc3ncc(C(=O)NCCO)s3)ccc2O1 (stereo not shown) [Example 342] ?
Outgoing: 2.85

Incoming: Need log10(IC50), item Cc1ccccc1C1CCc2cc(Oc3ncc(CNC(=O)CN4CCCC4=O)s3)ccc2O1 (stereo not shown) [Example 327]
Outgoing: 3.48

Incoming: For the molecule CCCNC(=O)c1cnc(Oc2ccc3c(c2)CCC(c2cc(F)ccc2C)O3)s1 (stereo not shown) [Example 343] , what log10(IC50) is on record?
Outgoing: 2.90
